Tested on: GCaMP5-expressing T. gondii
Construct: whole extracellular parasites expressing GCaMP5 Ca2+ sensor
Design: species or system GCaMP5-expressing Toxoplasma gondii, extracellular; GCaMP5 fluorescence (cytosolic Ca2+) after 100 uM zaprinast in compound-pretreated extracellular parasites, background-subtracted, relative to zaprinast alone
Measurement parameters: 100 uM zaprinast stimulation; 10 min pretreatment; mean of two replicates; 0.23 h
Decision: fold change in fluorescence relative to zaprinast alone compared against 0.8; not below it gives Criterion met, below it gives Criterion not met.

> print(dat)
                                   molecule     discrete.label
1  Cc1cc(-c2ccnc(Nc3cccc(C#N)c3)n2)cc(C)c1O [GSK1440913A]  Criterion not met
2  CN(c1ccc(NC(=O)Nc2cccc(Cl)c2)cc1)c1ccnc(N)n1 [GW830707A]  Criterion not met
3  Cc1cccc(Nc2nc(N[C@H]3CCNC3)ncc2C(N)=O)c1 [GSK2197149A]      Criterion met
4  OCCCNc1nccc(-c2c(-c3ccc(F)cc3)nn3cc(C(F)(F)F)ccc23)n1 [GW569293X]      Criterion met
5  N#Cc1c(NC(=O)c2ccc(F)cc2)sc2c1CCCC2 [SB-347804]      Criterion met

###

// fold change in fluorescence relative to zaprinast alone lookup, one value per entry
Test system: GCaMP5-expressing T. gondii
Construct: whole extracellular parasites expressing GCaMP5 Ca2+ sensor
Design: species or system GCaMP5-expressing Toxoplasma gondii, extracellular; GCaMP5 fluorescence (cytosolic Ca2+) after 100 uM zaprinast in compound-pretreated extracellular parasites, background-subtracted, relative to zaprinast alone
Measurement parameters: 100 uM zaprinast stimulation; 10 min pretreatment; mean of two replicates; 0.23 h
Recorded metric: fold change in fluorescence relative to zaprinast alone

> print(dat)
                                   molecule  value
1  CCn1c(-c2nonc2N)nc2c(C#CC(C)(C)O)nc(OC[C@@H](N)c3ccccc3)cc21 [GSK938890A]  1.022
2               Nc1ncnc2c1ncn2-c1ccc(Cl)cc1  1.022
3  O=C(Nc1n[nH]c2cc(-c3cccc(F)c3)ccc12)C1CC1  1.069
4  CN(C(=O)c1ccc(-c2cc(-c3cn[nH]c3-c3ccccn3)ccn2)cc1)C1CCOCC1 [GW810083X]  1.114

###

Recorded fold change in fluorescence relative to zaprinast alone for the following compounds
Test system: GCaMP5-expressing T. gondii
Construct: whole extracellular parasites expressing GCaMP5 Ca2+ sensor
Parameters: species or system GCaMP5-expressing Toxoplasma gondii, extracellular; GCaMP5 fluorescence (cytosolic Ca2+) after 100 uM zaprinast in compound-pretreated extracellular parasites, background-subtracted, relative to zaprinast alone
Measurement parameters: 100 uM zaprinast stimulation; 10 min pretreatment; mean of two replicates; 0.23 h
Recorded metric: fold change in fluorescence relative to zaprinast alone

> print(dat)
                                   compound   value
1  COc1cc2ncnc(Nc3ccc4c(cnn4Cc4ccccc4)c3)c2cc1OC [GW282449A]   1.119
2  Cc1ccc(S(=O)(=O)Nc2ccc(Nc3nccc(Nc4cccc5[nH]ncc45)n3)cc2)cc1 [GSK581271A]  0.8813
3  COc1cccc(C2=C(Nc3cccc(O)c3)C(=O)NC2=O)c1 [SB-390771]  0.8334
4  Nc1ncnc2c1nc(-c1ccccc1)n2-c1ccccc1 [SKF-97293]   1.205
5  FC(F)(F)c1ccc(-c2nn3ncccc3c2-c2ccnc(Nc3ccc(Cl)c(C(F)(F)F)c3)n2)cc1 [GW829350X]  0.9679
6  Cc1c(O)cccc1Nc1ccnc2ccc(C(F)(F)F)cc12 [GW466413A]   1.009
7  O=C(O[C@H]1CN[C@H](C#Cc2cc3ncnc(Nc4ccc5c(cnn5Cc5ccccc5)c4)c3s2)C1)N1CCOCC1 [GSK200398A]   1.169
